- Assayed Target: Pantothenate synthetase (Mycobacterium tuberculosis (strain ATCC 25618 / H37Rv)) (UniProt P9WIL5)
- Sequence (P9WIL5 whole entry, looked up): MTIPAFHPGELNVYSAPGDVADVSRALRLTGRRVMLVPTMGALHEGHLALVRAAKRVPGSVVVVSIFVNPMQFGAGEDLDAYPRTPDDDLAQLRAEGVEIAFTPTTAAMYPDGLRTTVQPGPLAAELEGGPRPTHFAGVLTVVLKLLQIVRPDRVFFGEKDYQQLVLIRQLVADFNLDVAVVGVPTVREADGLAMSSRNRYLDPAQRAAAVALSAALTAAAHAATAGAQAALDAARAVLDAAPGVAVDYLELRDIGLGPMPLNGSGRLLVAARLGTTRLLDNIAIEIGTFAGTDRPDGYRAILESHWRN
- Procedure Text: Coupled enzyme confirmation of inhibitors against recombinant Mtb PanC (AID 375);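 note: 0% = full reaction with vehicle and 100% = no enzyme background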
- Recorded Conditions: coupled enzyme assay; at 10 µM, hits give high values
Assign inhibition to each entry below.
Answer in %, number only, no unit symbol.

Prompt line: Any idea what inhibition was measured for `CN(C)c1ccc(NC(=O)c2ccncc2)c2ccccc12` ?
Response line: 6

Prompt line: Looking for the measured inhibition of COCCNC(=O)C(c1cccc(OC)c1)N(Cc1cccs1)C(=O)Cn1nnc2ccccc21 (stereo not given) , can you help?
Response line: 0

Prompt line: Return reported inhibition; argument: `CC(=O)OCC(=O)[C@@]1(O)CC[C@H]2[C@@H]3CCC4=CC(=O)CC[C@]4(C)[C@H]3[C@@H](O)C[C@@]21C`
Response line: 5

Prompt line: Which measured inhibition value corresponds to `NC(=O)CSc1cn(CCNC(=O)c2cccs2)c2ccccc12` ?
Response line: 0

Prompt line: Would you mind telling me what inhibition value was observed for `CCCN1CCN(CCCNC(=O)Cn2nc(-c3ccc(Cl)cc3)ccc2=O)CC1` ?
Response line: 0

Prompt line: Give its inhibition value. Item: `O=C(c1csc2ccccc12)N1CCCCCC1`
Response line: 2

Prompt line: Which inhibition reading was recorded for the compound `Cc1ccc(-c2noc(CN3CCN(c4ccccc4F)CC3)n2)cc1` ?
Response line: 0

Prompt line: What inhibition value was documented for this compound, `COc1ccccc1CNS(=O)(=O)c1cccc(S(=O)(=O)N2CCOCC2)c1` ?
Response line: 0

Prompt line: # inhibition lookup, item O=C1c2ccccc2C(=O)N1CC(O)Cn1nnc2ccccc21 (stereo not given)
Response line: 0

Prompt line: Give its inhibition value. Item: `c1ccc2[nH]c(-c3cscn3)nc2c1`
Response line: 0

Prompt line: // inhibition lookup, key: `Cc1ccc(C)n1NC(=O)c1ccco1`
Response line: 0

Prompt line: Given the compound `Cc1sc2nc3n(c(=O)c2c1C)NC(=O)CC3` , what is its reported inhibition?
Response line: 0

Prompt line: What measured inhibition goes with `Cn1nc(-c2ccc(C(=O)N3CCN(c4ccccc4)CC3)cc2)c2ccccc2c1=O` ?
Response line: 0

Prompt line: Quick one: inhibition of COC(=O)c1ccccc1NC(=O)C1CC=CCC1C(=O)O (stereo not given) ?
Response line: 0

Prompt line: I am curious: what inhibition value has been reported for CCC(c1nnnn1C(C)(C)C)N1CCN(C2CCCC2)CC1 (stereo not given) ?
Response line: 4

---

- Procedure Text: HUVEC growth inhibition – cell-based, human, primary screen (AID 575);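 note: 100% = median of untreated cell wells with 0.1% DMSO on each plate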
- Recorded Conditions: HUVEC proliferation, CellTiter-Glo luminescence, 72 h; at 10 µM; hits give low values
Provide the recorded viability for the entries that follow.
Enter your answer as a number in %; do not include the unit.

Prompt line: # get_value(readout='viability', item= `C(#CCN1CCOCC1)COCC#Cc1ccccc1` )
Response line: 91.4

Prompt line: Using the record for c1ccc(C2CC3CC(c4ccco4)N2O3)cc1 (configuration not stated) , report its viability.
Response line: 82.8

Prompt line: Sample CC(C)(C)P(=O)(c1ccncc1)N1CCCC1 (configuration not stated) — what was its viability?
Response line: 105

Prompt line: Query (molecule): `Cn1c(O)c(C=NCc2ccco2)c(=O)n(C)c1=O` ; field requested: viability
Response line: 96.8

Prompt line: What measured viability goes with `COc1ccc(CN2CCN(C(=O)Cc3ccccc3)CC2)c(OC)c1` ?
Response line: 89.9

Prompt line: Item O=C(C1CCCN(c2nnc(-n3cccc3)s2)C1)N1CCC2(CC1)OCCO2 (configuration not stated) has what recorded viability?
Response line: 109

Prompt line: For the molecule `C#C[C@]1(O)CC[C@H]2[C@@H]3CCC4=CC(=O)CC[C@]4(C)[C@H]3CC[C@@]21C` , what viability is on record?
Response line: 91.6

Prompt line: Give its viability value. Item: COc1ccc(C2SCC(=O)Nc3c2c(=O)[nH]n3C2CCCCCC2)cc1OC (configuration not stated)
Response line: 105

Prompt line: // returns reported viability for input CC1(C)C(c2ccccc2)=NC(c2cccnc2)N1O (configuration not stated)
Response line: 106

Prompt line: Bench note: what viability did `CCOc1cccc(N2C(=O)CC(=O)NC2=O)c1` show?
Response line: 107

Prompt line: Using the record for `Cc1ccc(CC2C(=O)N(C)C(=O)N(C)C2=O)s1` , report its viability.
Response line: 82.8

Prompt line: Quick one: viability for `C[C@@]1(CO)[C@H](O)CC[C@@]2(C)[C@H]1CC[C@H]1C[C@@H]3C[C@@]12CC[C@]3(O)CO` ?
Response line: 49.2
